Below is a list of entries, each paired with its recorded Population Pyknosed Nuclei (%) value.
Tested on: HEK-293T
Assay: Multiplex assay against HEK293T
Assay type: toxicity, cell-based
Conditions: human, 12 h, 10 µM, compound concentration 10 uM, replicate 2

smiles_representation: Cc1cnc(-c2cc(N3CCN(C(=O)CCS(C)(=O)=O)CC3)ncc2Cl)c(C)c1
assay_system: HEK-293T
Population Pyknosed Nuclei (%): 17
//
smiles_representation: N#Cc1c(Oc2cccc(OS(=O)(=O)CCCC(F)(F)F)c2)cccc1C(F)(F)F
assay_system: HEK-293T
Population Pyknosed Nuclei (%): 28
//
smiles_representation: O=C(CCCc1ccccc1)Nc1nc2ccccc2c(=O)s1
assay_system: HEK-293T
Population Pyknosed Nuclei (%): 17
//
smiles_representation: CN[C@@H](C)C(=O)N[C@H](C(=O)N1CCC[C@H]1C(=O)Nc1snnc1-c1ccccc1)C1CCCCC1
assay_system: HEK-293T
Population Pyknosed Nuclei (%): 18
//
smiles_representation: O=C1[C@H](Cc2ccc(O)cc2)N2C(=O)CCN(C(=O)NCc3ccccc3)[C@H]2CN1Cc1cccc2ccccc12
assay_system: HEK-293T
Population Pyknosed Nuclei (%): 11
//
smiles_representation: CCCCC(=O)N(Cc1ccc(-c2ccccc2-c2nnn[nH]2)cc1)[C@H](C(=O)O)C(C)C
assay_system: HEK-293T
Population Pyknosed Nuclei (%): 13
//
smiles_representation: Cc1cccc(NC(=O)CN2CCC(c3ccccn3)CC2)c1.Cl.Cl
assay_system: HEK-293T
Population Pyknosed Nuclei (%): 18
//
smiles_representation: CC[C@@H](C)Nc1nc(C)nc2c(-c3ccc(OC)nc3C)c(C)nn12
assay_system: HEK-293T
Population Pyknosed Nuclei (%): 16
//
smiles_representation: Cc1onc(-c2ccccc2Cl)c1C(=O)N(C)c1ccc(Cl)cc1
assay_system: HEK-293T
Population Pyknosed Nuclei (%): 14

src = ChEMBL document CHEMBL5058577
